Test target: β2 (guinea pig trachea) (Cavia porcellus, UniProt Q8K4Z4)
Sequence (Q8K4Z4 whole entry): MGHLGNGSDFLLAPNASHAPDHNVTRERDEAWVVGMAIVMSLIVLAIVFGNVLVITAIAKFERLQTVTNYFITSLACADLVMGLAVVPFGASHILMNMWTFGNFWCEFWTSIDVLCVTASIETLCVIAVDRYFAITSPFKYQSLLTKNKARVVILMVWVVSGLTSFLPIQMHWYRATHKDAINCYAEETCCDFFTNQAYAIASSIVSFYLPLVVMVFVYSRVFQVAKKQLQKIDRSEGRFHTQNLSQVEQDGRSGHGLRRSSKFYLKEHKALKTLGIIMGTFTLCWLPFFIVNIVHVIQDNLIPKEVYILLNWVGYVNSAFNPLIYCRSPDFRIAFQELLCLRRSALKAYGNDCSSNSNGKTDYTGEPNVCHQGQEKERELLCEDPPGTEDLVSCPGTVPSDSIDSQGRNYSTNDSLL
Measurement notes: cell-based
Set-up: species or system guinea pig (Hartley albino)
Parameter: IC50 (nM)
Report the figure in nM without appending any unit label.

[ask] Please list IC50 recorded for the molecule CC(CCc1ccccc1)NCC(O)c1ccc(O)c(C(N)=O)c1 (stereo not shown) [Labetalol, labetalol, reference compound]
[reply] 1100

====

Test target: β2 (guinea pig trachea) (Cavia porcellus, UniProt Q8K4Z4)
Measurement notes: cell-based
Design: species or system guinea pig (Hartley albino)
Assay conditions: guinea pig trachea, β2, relaxation; INA 10^-7 M, 37° C., pilocarpine; read-out: β-Blocking activity in vitro IC50, Trachea β2 × 10^-7
Where a name gives a salt, the structure may show the parent alone.
The following compounds are shown together with reported pIC50 values.
Quick note: pIC50 values are minus log10 of concentrations in mol/L.

Sample records with pIC50:
N#Cc1ccccc1OCC(O)CNCCN1C(=O)CN(c2ccccc2)C1=O (stereo not drawn) : 5.70
O=C1CN(c2ccccc2)C(=O)N1CCNCC(O)COc1ccccc1Cl (stereo not drawn) : 6.22
N#Cc1ccccc1OCC(O)CNCCN1C(=O)CN(c2ccc(Cl)cc2)C1=O (stereo not drawn) : 5.22
Cc1ccccc1OCC(O)CNCCN1C(=O)CN(c2ccccc2)C1=O (stereo not drawn) : 5.80
Cc1cccc(OCC(O)CNCCN2C(=O)CN(c3ccccc3)C2=O)c1 (stereo not drawn) : 5.21
O=C1CN(c2ccccc2)C(=O)N1CCNCC(O)COc1ccccc1 (stereo not drawn) [Ia, hydrochloride] : 5.17
COc1ccc(N2CC(=O)N(CCNCC(O)COc3ccccc3C#N)C2=O)cc1OC (stereo not drawn) : 6.37
COc1ccc(N2CC(=O)N(CCNCC(O)COc3ccccc3)C2=O)cc1OC (stereo not drawn) : 5.82

[ask] System β2 (guinea pig trachea) (Cavia porcellus, UniProt Q8K4Z4). Read-out pIC50. Item COc1cccc(N2CC(=O)N(CCNCC(O)COc3ccccc3C#N)C2=O)c1 (stereo not drawn) [In, hydrochloride] . Report value.
[reply] 6.19

[ask] System β2 (guinea pig trachea) (Cavia porcellus, UniProt Q8K4Z4). Read-out pIC50. Item COc1ccc(N2CC(=O)N(CCNCC(O)COc3cccc(C)c3)C2=O)cc1OC (stereo not drawn) . Report value.
[reply] 5.96

====

Test target: β1 (guinea pig atria) (Cavia porcellus, UniProt H0W3H1)
Construct: The atria and the trachea have been suspended respectively in Ringer oxygenated solution; from tissue; host or cells: isolated atria of Hartley albino guinea pigs
Sequence (H0W3H1 1-470): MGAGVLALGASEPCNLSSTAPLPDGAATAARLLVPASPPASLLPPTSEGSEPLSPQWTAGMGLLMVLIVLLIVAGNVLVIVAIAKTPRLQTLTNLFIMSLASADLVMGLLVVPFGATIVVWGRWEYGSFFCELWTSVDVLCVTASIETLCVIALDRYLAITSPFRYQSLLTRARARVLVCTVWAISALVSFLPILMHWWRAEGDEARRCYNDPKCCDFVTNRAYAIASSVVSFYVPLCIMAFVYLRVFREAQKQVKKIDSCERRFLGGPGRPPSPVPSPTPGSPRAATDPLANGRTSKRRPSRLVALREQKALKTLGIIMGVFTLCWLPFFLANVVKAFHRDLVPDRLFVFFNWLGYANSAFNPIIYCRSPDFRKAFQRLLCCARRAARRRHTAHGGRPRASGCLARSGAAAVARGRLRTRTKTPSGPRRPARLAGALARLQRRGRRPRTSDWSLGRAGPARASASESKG
Measurement notes: In vitro β-blocking activity, guinea pig atria stimulated with isopropylnoradrenaline (INA)
Type: cell-based, guinea pig (Hartley albino)
Assay conditions: guinea pig atria, β1, positive inotropic effect; INA 10^-8 M, 32° C.; read-out: β-Blocking activity in vitro IC50, Atria inotropism × 10^-7
Counter-ions that a name gives are not always drawn.
The following compounds are shown together with reported pIC50 values.
Quick note: pIC50 values are minus log10 of concentrations in mol/L.

[ask] Please list pIC50 recorded for the compound N#Cc1ccccc1OC[C@@H](O)CNCCN1C(=O)CN(c2ccccc2)C1=O [Ic(S), hydrochloride]
[reply] 7.22

[ask] Please list pIC50 recorded for the compound Cl.N#Cc1ccccc1OCC(O)CNCCN1C(=O)CN(c2ccc3c(c2)OCO3)C1=O (stereo not shown) [Im, hydrochloride]
[reply] 7.20

[ask] Please list pIC50 recorded for the compound COc1ccc(N2CC(=O)N(CCNCC(O)COc3ccccc3C#N)C2=O)cc1OC (stereo not shown)
[reply] 6.72

[ask] Please list pIC50 recorded for the compound COc1ccc(N2CC(=O)N(CCNCC(O)COc3ccccc3C#N)C2=O)cc1.Cl (stereo not shown) [Il, hydrochloride]
[reply] 7.02

[ask] Please list pIC50 recorded for the compound O=C1CN(c2ccc(Cl)cc2)C(=O)N1CCNCC(O)COc1ccccc1 (stereo not shown)
[reply] 5.92

[ask] Please list pIC50 recorded for the compound O=C1CN(c2ccccc2)C(=O)N1CCNCC(O)COc1ccccc1Cl (stereo not shown)
[reply] 6.94

====

Measurement notes: in vivo
Assay conditions: mouse, iv
Counter-ions that a name gives are not always drawn.
Parameter: LD50 at 168 h
The number alone won't do; follow it with the unit.

COc1ccc(N2CC(=O)N(CCNCC(O)COc3ccccc3C#N)C2=O)cc1OC (stereo not drawn) [Ii] : 137 mg/kg
COc1cccc(N2CC(=O)N(CCNCC(O)COc3ccccc3C#N)C2=O)c1 (stereo not drawn) [In, hydrochloride] : 120 mg/kg
O=C1CN(c2ccc(Cl)cc2)C(=O)N1CCNCC(O)COc1ccccc1 (stereo not drawn) [Id] : 45 mg/kg
Cc1cccc(OCC(O)CNCCN2C(=O)CN(c3ccc(Cl)cc3)C2=O)c1 (stereo not drawn) [Ie] : 25 mg/kg
Cc1cccc(OCC(O)CNCCN2C(=O)CN(c3ccccc3)C2=O)c1 (stereo not drawn) [Ib] : 69 mg/kg
O=C1CN(c2ccccc2)C(=O)N1CCNCC(O)COc1ccccc1 (stereo not drawn) [Ia, hydrochloride] : 96 mg/kg

[ask] Please list LD50 at 168 h recorded for the compound N#Cc1ccccc1OCC(O)CNCCN1C(=O)CN(c2ccccc2)C1=O (stereo not drawn) [Ic]
[reply] 99 mg/kg

====

Test target: β1 (guinea pig atria) (Cavia porcellus, UniProt H0W3H1)
Construct: The atria and the trachea have been suspended respectively in Ringer oxygenated solution; from tissue; host or cells: isolated atria of Hartley albino guinea pigs
Measurement notes: In vitro β-blocking activity, guinea pig atria stimulated with isopropylnoradrenaline (INA)
Type: cell-based, guinea pig (Hartley albino)
Assay conditions: guinea pig atria, β1, chronotropic effect; INA 10^-8 M, 32° C.; read-out: β-Blocking activity in vitro IC50, Atria chronotropism × 10^-7
Counter-ions that a name gives are not always drawn.
Parameter: log10 of IC50 (log10 of the value in nM)
For clarity, the numbers are log10 values of IC50 expressed in nM.

Sample records with log10 of IC50:
COc1ccc(N2CC(=O)N(CCNCC(O)COc3ccccc3)C2=O)cc1OC (stereo not shown) : 2.36
Cc1ccccc1OCC(O)CNCCN1C(=O)CN(c2ccccc2)C1=O (stereo not shown) : 2.06

[ask] Please list log10 of IC50 recorded for the compound COc1ccc(N2CC(=O)N(CCNCC(O)COc3ccccc3C#N)C2=O)cc1OC (stereo not shown)
[reply] 1.91

[ask] Please list log10 of IC50 recorded for the compound N#Cc1ccccc1OC[C@@H](O)CNCCN1C(=O)CN(c2ccccc2)C1=O [Ic(S), hydrochloride]
[reply] 1.46

[ask] Please list log10 of IC50 recorded for the compound N#Cc1ccccc1OCC(O)CNCCN1C(=O)CN(c2ccc(Cl)cc2)C1=O (stereo not shown)
[reply] 2.32

[ask] Please list log10 of IC50 recorded for the compound N#Cc1ccccc1OCC(O)CNCCN1C(=O)CN(c2ccccc2)C1=O (stereo not shown)
[reply] 2.08

[ask] Please list log10 of IC50 recorded for the compound O=C1CN(c2ccc(Cl)cc2)C(=O)N1CCNCC(O)COc1ccccc1 (stereo not shown)
[reply] 2.89

[ask] Please list log10 of IC50 recorded for the compound COc1ccc(N2CC(=O)N(CCNCC(O)COc3cccc(C)c3)C2=O)cc1OC (stereo not shown)
[reply] 2.66

[ask] Please list log10 of IC50 recorded for the compound Cl.N#Cc1ccccc1OCC(O)CNCCN1C(=O)CN(c2ccc3c(c2)OCO3)C1=O (stereo not shown) [Im, hydrochloride]
[reply] 1.61

[ask] Please list log10 of IC50 recorded for the compound O=C1CN(c2ccccc2)C(=O)N1CCNCC(O)COc1ccccc1 (stereo not shown) [Ia, hydrochloride]
[reply] 2.15

[ask] Please list log10 of IC50 recorded for the compound COc1cccc(N2CC(=O)N(CCNCC(O)COc3ccccc3C#N)C2=O)c1 (stereo not shown) [In, hydrochloride]
[reply] 1.88

[ask] Please list log10 of IC50 recorded for the compound COc1ccc(N2CC(=O)N(CCNCC(O)COc3ccccc3C#N)C2=O)cc1.Cl (stereo not shown) [Il, hydrochloride]
[reply] 1.65

[ask] Please list log10 of IC50 recorded for the compound Cc1cccc(OCC(O)CNCCN2C(=O)CN(c3ccccc3)C2=O)c1 (stereo not shown)
[reply] 2.63

[ask] Please list log10 of IC50 recorded for the compound N#Cc1ccccc1OC[C@H](O)CNCCN1C(=O)CN(c2ccccc2)C1=O [Ic(R), hydrochloride]
[reply] 3.15

[ask] Please list log10 of IC50 recorded for the compound O=C1CN(c2ccccc2)C(=O)N1CCNCC(O)COc1ccccc1Cl (stereo not shown)
[reply] 1.73

====

The following molecules are shown together with reported IC50 values.
Test target: β1 (guinea pig atria) (Cavia porcellus)
Construct: The atria and the trachea have been suspended respectively in Ringer oxygenated solution; from tissue; host or cells: isolated atria of Hartley albino guinea pigs
Measurement notes: In vitro β-blocking activity, guinea pig atria stimulated with isopropylnoradrenaline (INA)
Type: cell-based, guinea pig (Hartley albino)
Assay conditions: guinea pig atria, β1, positive inotropic effect; INA 10^-8 M, 32° C.; read-out: β-Blocking activity in vitro IC50, Atria inotropism × 10^-7
Experimental: Hartley albino guinea pigs of 450 g average weight were used. The atria and the trachea have been suspended respectively in Ringer oxygenated solution at 32° C., and in Krebs carboxygenated solution medicated with pilocarpine, at 37° C. […] The percent inhibitions of the chronotropic and positive inotropic effect (atria) and of relaxation (trachea) were evaluated and the IC50 values were calculated therefrom.
Counter-ions that a name gives are not always drawn.
Report the figure in µM without appending any unit label.

Cc1ccccc1OCC(O)CNCCN1C(=O)CN(c2ccccc2)C1=O (stereo not shown) : 0.15

[ask] Please list IC50 recorded for the molecule COc1ccc(N2CC(=O)N(CCNCC(O)COc3ccccc3)C2=O)cc1OC (stereo not shown)
[reply] 0.21

[ask] Please list IC50 recorded for the molecule COc1ccc(N2CC(=O)N(CCNCC(O)COc3cccc(C)c3)C2=O)cc1OC (stereo not shown)
[reply] 0.89

[ask] Please list IC50 recorded for the molecule N#Cc1ccccc1OC[C@H](O)CNCCN1C(=O)CN(c2ccccc2)C1=O [Ic(R), hydrochloride]
[reply] 3.4
